# experimentDescription: in vivo
# conditionsUsed: mouse, ip, mice

compound | LD50 [mg/kg]
Nc1ncnc2c1ncn2C1C=C(CO)C(O)C1O (single isomer, unassigned) [neplanocin A] | 13.7
